target: human ether-à-go-go-related gene (hERG) potassium channel (human, UniProt Q12809); test: primary screen, population patch clamp on CHO cells stably expressing hERG; higher = less effect of the substance;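 further: peak tail current of the secondary pulse compared with the same well before compound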
Sequence (Q12809 whole entry, looked up): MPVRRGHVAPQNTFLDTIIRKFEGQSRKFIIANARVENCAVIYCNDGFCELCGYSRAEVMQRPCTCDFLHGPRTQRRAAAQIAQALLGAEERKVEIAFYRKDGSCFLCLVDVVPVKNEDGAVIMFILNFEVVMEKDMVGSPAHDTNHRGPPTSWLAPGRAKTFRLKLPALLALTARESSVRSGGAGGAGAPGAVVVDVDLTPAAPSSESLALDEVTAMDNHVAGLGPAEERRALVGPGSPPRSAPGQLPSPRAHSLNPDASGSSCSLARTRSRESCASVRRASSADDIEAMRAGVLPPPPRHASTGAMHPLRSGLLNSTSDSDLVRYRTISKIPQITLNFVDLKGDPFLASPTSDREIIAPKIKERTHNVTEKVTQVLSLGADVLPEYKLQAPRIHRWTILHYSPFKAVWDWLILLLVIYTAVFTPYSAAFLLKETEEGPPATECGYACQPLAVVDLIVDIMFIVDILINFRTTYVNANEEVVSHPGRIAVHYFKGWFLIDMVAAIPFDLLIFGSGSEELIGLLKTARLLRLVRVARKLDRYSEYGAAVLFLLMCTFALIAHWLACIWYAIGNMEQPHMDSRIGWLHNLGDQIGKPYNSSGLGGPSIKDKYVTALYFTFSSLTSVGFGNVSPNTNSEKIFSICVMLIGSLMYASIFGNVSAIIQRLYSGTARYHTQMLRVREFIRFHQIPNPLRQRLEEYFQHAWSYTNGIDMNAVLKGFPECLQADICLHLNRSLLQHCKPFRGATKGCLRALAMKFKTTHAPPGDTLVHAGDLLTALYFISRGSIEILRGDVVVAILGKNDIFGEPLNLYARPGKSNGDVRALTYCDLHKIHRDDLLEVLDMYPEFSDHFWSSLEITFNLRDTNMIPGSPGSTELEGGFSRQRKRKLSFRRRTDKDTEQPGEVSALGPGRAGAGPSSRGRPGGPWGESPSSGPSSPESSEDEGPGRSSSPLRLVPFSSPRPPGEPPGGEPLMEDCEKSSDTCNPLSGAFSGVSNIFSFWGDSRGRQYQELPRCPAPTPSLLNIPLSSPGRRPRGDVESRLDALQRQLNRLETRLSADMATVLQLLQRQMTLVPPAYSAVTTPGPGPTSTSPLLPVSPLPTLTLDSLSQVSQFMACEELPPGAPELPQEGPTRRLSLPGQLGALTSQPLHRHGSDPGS
In all, about 310,000 compounds went through this assay and about 14,000 (4.5%) showed an effect of 50% or more. Effects have a minus sign here. The sample holds strong results, similar compounds and a random draw of the others, so the mix is not that of the screen.
endpointLabel: hERG current change (%, negative = inhibition) at 10uM (%)
One number for each entry, in %.

Solved entries (count: 6):
{"columns": ["compound", "numericValue"],
 "data": [
  ["CCOCCCNC(=O)c1ccc2c(c1)N(CC)C(=O)c1ccccc1S2=O (stereo not drawn)", 16.2],
  ["CCOC(=O)c1ncn2c1[C@@H]1CCNC1C(=O)c1cc(OC)ccc1-2 (stereo partly drawn)", -68.4],
  ["CC[N+]12CCC(CC1)C(C(O)(c1ccccc1)c1ccccc1)C2.[Br-] (stereo not drawn)", -5.24],
  ["CCCCN1CCNC[C@@H]1Cc1ccc(O)cc1", 16],
  ["Cc1cccc(CN2CCC(n3nccc3NC(=O)c3ccccc3C)CC2)n1", -19.9],
  ["O=C(COC(=O)c1cc(-c2ccncc2)nc2ccccc12)Nc1ccc2c(c1)OCO2", 2.21]
]}

Please report hERG current change (%, negative = inhibition) at 10uM for every entry that follows.
1. CCOc1ccccc1N1CCN(C(=O)c2cc3cc(OC)ccc3[nH]2)CC1
2. CCC[N+]12CCC(CC1)C(C(O)(c1ccccc1)c1ccccc1)C2.[Br-] (stereo not drawn)
3. CCOc1ccc(N2CC(O)(c3cccs3)[N+]3=C2CCCC3)cc1.[Br-] (stereo not drawn)
4. COC(=O)c1cc(-c2ccc(Br)cc2)on1
5. CCCC[N+]12CCC(CC1)C(C(O)(c1ccccc1)c1ccccc1)C2.[Br-] (stereo not drawn)
6. OC1(c2cccs2)CN(c2ccccc2)C2=[N+]1CCCC2.[Br-] (stereo not drawn)
7. CSc1ccc(CN2CCC(n3nccc3NC(=O)c3ccccc3C)CC2)cc1
8. Cc1cccc(N2CC(O)(c3cccs3)[N+]3=C2CCCC3)c1C.[Br-] (stereo not drawn)

Response given:
-3.66
-0.95
-69.7
8.48
5.84
4.63
-75
-43.5

Please report hERG current change (%, negative = inhibition) at 10uM for every entry that follows.
1. Cc1ccc(S(=O)(=O)CCC(=O)N(Cc2nnc(-c3ccc(Cl)cc3)o2)C2CC2)cc1
2. CC(C)(C)c1ccc(C(=O)C2CCCN(Cc3ccon3)C2)cc1 (stereo not drawn)
3. COC(=O)C1C(O)=C(C=NCc2ccccc2)C(=O)CC1(C)C (stereo not drawn)
4. C=CC[C@]12C[C@@H](OC)C(=O)C=C1O[C@@H](c1ccc(OC)c(OC)c1)[C@H]2C
5. Cc1cccc(N2CC(O)(c3cccs3)[N+]3=C2CCCC3)c1.[Br-] (stereo not drawn)
6. CCOC(=O)C1=C(C)N(C)C(=S)NC1c1cc(OC)ccc1OC (stereo not drawn)
7. CC[N+]12CCC(CC1)C(=C(c1ccccc1)c1ccccc1)C2.[Br-]

Response given:
1: -12.7; 2: -1.45; 3: -5.13; 4: 14.5; 5: -12.3; 6: 3.73; 7: -73.6

Please report hERG current change (%, negative = inhibition) at 10uM for every entry that follows.
1. COc1cccc(NC(=O)Nc2c(C)n(C)n(-c3ccccc3)c2=O)c1
2. Cc1ccc(Nc2cccc(C(F)(F)F)c2)nn1
3. O=C(c1ccc(C(F)(F)F)cc1)C1CCCN(C(=O)CN2CCCC2=O)C1 (stereo not drawn)

Response given:
3.91
-0.351
0.525

Please report hERG current change (%, negative = inhibition) at 10uM for every entry that follows.
1. CC(=O)NC(C)c1cc(Cl)c2ccccc2c1O (stereo not drawn)
2. COc1ccc(N2CC(O)(c3ccc(F)cc3)[N+]3=C2CCCC3)cc1.[Br-] (stereo not drawn)
3. Nc1nc(CN2CCN(c3ccccc3F)CC2)nc(Nc2ccc3c(c2)OCCO3)n1

Response given:
1. 1.04
2. -3.37
3. -74.4

Please report hERG current change (%, negative = inhibition) at 10uM for every entry that follows.
1. O=C1CCC2S/C(=C/Nc3ccc(C(F)(F)F)cc3)C(=O)N12 (stereo not drawn)
2. c1ccc2c(c1)Oc1ccccc1S2

Response given:
1. -52.2
2. 14.7

Please report hERG current change (%, negative = inhibition) at 10uM for every entry that follows.
1. Cc1cccc(CN2CCCC(C(=O)c3ccc(C(F)(F)F)cc3)C2)n1 (stereo not drawn)
2. COc1ccc(C(=O)CSc2nnc(NC(=O)C3CC(=O)N(c4cccc(OC)c4)C3)s2)cc1 (stereo not drawn)
3. Cc1ccc(OCC(=O)NCC(=O)Nc2ccc(F)c(F)c2F)c([N+](=O)[O-])n1

Response given:
-68.2
15.6
-34.4

Please report hERG current change (%, negative = inhibition) at 10uM for every entry that follows.
1. O=C(CCC(=O)N1CCN(c2ccc(O)cc2)CC1)c1ccc(Br)cc1
2. COc1cc([N+](=O)[O-])ccc1NC(=O)Nc1ccc2c(c1)OCCO2
3. Cc1cnc(C(=O)N2CCCC(C(=O)c3ccc(C(F)(F)F)cc3)C2)cn1 (stereo not drawn)
4. COc1cccc(NC(=O)c2oc3ccccc3c2NC(=O)c2ccc3c(c2)OCO3)c1
5. Nc1ccc(N2CCOCC2)c(Cl)c1

Response given:
1: -44.4; 2: 25.3; 3: -17.7; 4: 5.18; 5: 1.49

Please report hERG current change (%, negative = inhibition) at 10uM for every entry that follows.
1. C/C(=N\NC(=O)c1c(Br)c(C)nn1C)c1cccc(NC(=O)c2ccccc2C)c1
2. Cc1c(NC(=O)CN2C(=O)c3ccc([N+](=O)[O-])cc3C2=O)c(=O)n(-c2ccccc2)n1C

Response given:
1. -4.71
2. 8.89
